# assay-system: T1, USP38, Q8NB14
# T1 chain: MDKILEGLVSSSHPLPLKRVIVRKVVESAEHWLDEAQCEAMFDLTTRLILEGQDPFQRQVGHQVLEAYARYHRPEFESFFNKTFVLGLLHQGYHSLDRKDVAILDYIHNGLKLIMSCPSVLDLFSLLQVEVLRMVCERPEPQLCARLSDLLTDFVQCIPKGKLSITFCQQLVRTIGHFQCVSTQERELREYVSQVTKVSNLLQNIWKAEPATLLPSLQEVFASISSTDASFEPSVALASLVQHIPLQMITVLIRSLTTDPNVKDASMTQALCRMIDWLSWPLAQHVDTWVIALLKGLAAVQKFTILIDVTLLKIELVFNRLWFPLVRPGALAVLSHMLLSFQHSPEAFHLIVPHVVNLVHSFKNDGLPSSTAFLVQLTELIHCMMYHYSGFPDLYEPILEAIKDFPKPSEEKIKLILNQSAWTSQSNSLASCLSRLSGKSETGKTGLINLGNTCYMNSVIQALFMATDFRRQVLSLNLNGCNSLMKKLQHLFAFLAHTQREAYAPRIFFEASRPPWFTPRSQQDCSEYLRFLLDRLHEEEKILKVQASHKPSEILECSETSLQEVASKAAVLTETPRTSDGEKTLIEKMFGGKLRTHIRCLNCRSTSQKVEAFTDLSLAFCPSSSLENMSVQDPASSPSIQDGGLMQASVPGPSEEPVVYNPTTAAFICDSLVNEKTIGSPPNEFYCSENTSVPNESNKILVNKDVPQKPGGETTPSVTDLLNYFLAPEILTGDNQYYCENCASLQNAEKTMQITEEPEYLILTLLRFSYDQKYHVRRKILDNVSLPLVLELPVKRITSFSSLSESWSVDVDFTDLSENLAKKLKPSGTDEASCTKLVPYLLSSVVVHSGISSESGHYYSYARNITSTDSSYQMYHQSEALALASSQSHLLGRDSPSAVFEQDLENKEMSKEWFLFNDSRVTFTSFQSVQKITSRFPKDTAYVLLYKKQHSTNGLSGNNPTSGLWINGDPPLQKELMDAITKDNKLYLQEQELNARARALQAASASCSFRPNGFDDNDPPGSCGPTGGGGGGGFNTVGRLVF
# assay-overview: median log2 fold change of GCK-ALFA target abundance (FLAG IP / Myc IP barcode read proportion) (log2 ratio); each designed protein is fused to an ALFA-tag nanobody in HEK293 cells to bring the named protein to FLAG-tagged glucokinase (GCK); Myc marks an untargeted standard; higher = target protein stabilised (more abundant)
# condition-notes: target protein: 3xFLAG-MCP-GCK-ALFA reporter; HEK293 landing pad (RPLP)
Catalogue of binders with associated median log2 fold change
measurement-label: median log2 fold change

| binder | numeric-value |
| --- | --- |
| usp_38_diff_out_13_93_74 (protein) DLEARVEALLAAQEAEADALAAELAARAAAGEITVEEILERSSALADRIAEETRRAVAELEAAGEAALARRLRERTAEILLRLTERVGAILEELAAREAA | 0.136 |
| usp_38_diff_out_18_14_258 (protein) SAELEEATISNLKLLKEDVKKETERVIRLLEKNKDDPERVKRIYERAQRDLAGVETYAKEVLEEAKKNGWEEKEKAAKELLEEVDKAKEEIEKKVKEVLA | 0.144 |

These measurements were taken from the supplement of paper PMC12632987.
